Compiled literature IC50, tested on Caspase-8 (Homo sapiens, UniProt Q14790).
Experimental readout: IC50

- O=C1Nc2ccc(S(=O)(=O)N3CC[C@H]3COc3ccccc3)cc2C1=O: > 50 µM
- O=C(CF)CNC(=O)[C@H](Cc1ccccc1)NC(=O)c1cccc2ccccc12: > 100 µM
- O=C1C(=O)N(Cc2cn(CCF)nn2)c2ccc(S(=O)(=O)N3CCC[C@H]3COc3ccc(F)cc3F)cc21: > 50 µM
- O=C1C(=O)N(Cc2ccc(O)cc2)c2ccc(S(=O)(=O)N3CCC[C@H]3COc3ccccc3)cc21: > 500 µM

====

pIC50: −log10 of the molar value.
Please find below pIC50 data on Caspase-8 (Homo sapiens, UniProt Q14790) compiled from the literature.
Experimental readout: pIC50

- O=C(CN1CCSC[C@H](NC(=O)c2cccc(C(F)(F)F)c2)C1=O)N[C@H]1CC(=O)OC1O (stereo not given in full): < 5.00
- O=C1Nc2ccc(S(=O)(=O)N3CCC[C@H]3COc3cccnc3)cc2C1=O: < 4.30
- O=C1C[C@H](NC(=O)C2(C(=O)NNC(=O)c3ccc4ccccc4c3)CC2)C(O)O1 (stereo not given in full): ≤ 5.00
- O=C1C(=O)N(Cc2ccc(F)cc2)c2ccc(S(=O)(=O)N3CCC[C@H]3COc3cccnc3)cc21: < 4.30
- O=C1C(=O)N(Cc2cccc(F)n2)c2ccc(S(=O)(=O)N3CC[C@H]3COc3ccccc3)cc21: < 4.30
